# target-system: Prostaglandin G/H synthase 1 (Homo sapiens)
# Sequence (P23219 whole entry): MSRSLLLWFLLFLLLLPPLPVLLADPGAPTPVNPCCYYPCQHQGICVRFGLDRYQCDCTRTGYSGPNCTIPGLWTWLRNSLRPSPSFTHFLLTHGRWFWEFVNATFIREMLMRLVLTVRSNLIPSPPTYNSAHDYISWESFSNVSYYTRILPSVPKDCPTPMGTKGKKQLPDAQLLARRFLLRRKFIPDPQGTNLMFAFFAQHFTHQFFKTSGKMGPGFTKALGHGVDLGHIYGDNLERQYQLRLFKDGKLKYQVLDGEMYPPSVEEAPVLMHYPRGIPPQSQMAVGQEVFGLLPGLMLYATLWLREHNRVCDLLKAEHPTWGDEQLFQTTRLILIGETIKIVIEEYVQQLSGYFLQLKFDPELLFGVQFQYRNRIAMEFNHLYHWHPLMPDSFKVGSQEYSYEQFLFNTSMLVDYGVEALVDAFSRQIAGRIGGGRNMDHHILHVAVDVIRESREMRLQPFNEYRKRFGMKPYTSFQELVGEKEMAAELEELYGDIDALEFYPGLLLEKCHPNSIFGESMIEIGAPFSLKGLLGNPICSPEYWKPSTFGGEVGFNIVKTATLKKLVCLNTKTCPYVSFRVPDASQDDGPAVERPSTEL
# assay-details: Inhibition of COX1 in human whole blood assessed as reduction in TXB2 generation
readout-label: pIC50
Numbers only, as −log10 of the molar value.

Cc1c(CCOCCO[N+](=O)[O-])cc(-c2ccc(S(C)(=O)=O)cc2)n1-c1ccc(F)cc1: 4.51

Then there is this compound:
// returns reported pIC50 for input Cc1c(CCOCCO)cc(-c2ccc(S(C)(=O)=O)cc2)n1-c1ccc(F)cc1 4.70

----------
# target-system: Prostaglandin G/H synthase 1 (Mus musculus)
# Sequence (P22437 whole entry): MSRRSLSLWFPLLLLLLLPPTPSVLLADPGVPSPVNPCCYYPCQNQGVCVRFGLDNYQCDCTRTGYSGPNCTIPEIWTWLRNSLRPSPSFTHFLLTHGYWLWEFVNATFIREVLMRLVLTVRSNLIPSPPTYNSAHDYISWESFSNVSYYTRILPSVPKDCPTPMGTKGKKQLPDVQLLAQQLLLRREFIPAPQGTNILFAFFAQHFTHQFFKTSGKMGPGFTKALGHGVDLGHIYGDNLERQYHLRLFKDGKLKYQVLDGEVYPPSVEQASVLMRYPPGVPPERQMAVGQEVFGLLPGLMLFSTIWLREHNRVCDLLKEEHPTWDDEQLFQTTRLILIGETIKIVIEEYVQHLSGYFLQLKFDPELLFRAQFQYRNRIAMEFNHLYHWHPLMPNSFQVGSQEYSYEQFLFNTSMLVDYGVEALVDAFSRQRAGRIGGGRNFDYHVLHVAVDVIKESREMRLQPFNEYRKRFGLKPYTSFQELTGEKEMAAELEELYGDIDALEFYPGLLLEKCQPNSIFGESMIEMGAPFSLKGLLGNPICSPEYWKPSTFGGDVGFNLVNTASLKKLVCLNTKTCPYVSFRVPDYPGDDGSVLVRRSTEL
# assay-details: Inhibition of arachidonic acid-induced COX1 activity in mouse J774 cells assessed as decrease in PGE2 levels incubated for 15 mins prior to arachidonic acid-challenge measured after 30 mins by RIA
pIC50: −log10 of the molar value.
readout-label: pIC50

Cc1c(CCOCCCO)cc(-c2ccc(S(C)(=O)=O)cc2)n1-c1cccc(F)c1: 5.43
Cc1c(CCOCCO)cc(-c2ccc(S(C)(=O)=O)cc2)n1-c1cccc(F)c1: < 5.00

Give me pIC50 for each of these compounds, listed below.
1. Cc1c(CCOCCO[N+](=O)[O-])cc(-c2ccc(S(C)(=O)=O)cc2)n1-c1ccc(F)cc1
2. Cc1c(CCOCCO[N+](=O)[O-])cc(-c2ccc(S(C)(=O)=O)cc2)n1-c1ccc(F)c(F)c1
3. Cc1c(CCOCCO[N+](=O)[O-])cc(-c2ccc(S(C)(=O)=O)cc2)n1-c1ccccc1

1: < 5.00; 2: < 5.00; 3: < 5.00
